List of selectivity ratio values.
# RUN DESCRIPTION: Selectivity index, ratio of CC50 for human MT4 cells to EC50 for HIV1 3B
# Type: toxicity, cell-based
# RUN CONDITIONS: read-out: Ratio CC50/EC50

Guide cases for selectivity ratio, answers given:
> print(dat)
                                smiles.code       readout.name  result
1  Cc1ccc(N(C(=O)c2ccc(F)cc2F)C(=S)OCCN2C(=O)c3ccccc3C2=O)cc1  selectivity ratio     667
2  O=C1c2ccccc2C(=O)N1CCOC(=S)N(C(=O)c1ccc(F)c(F)c1)c1ccc(Cl)cc1  selectivity ratio    6500
3  Cc1ccc(N(C(=O)c2ccccc2[N+](=O)[O-])C(=S)OCCN2C(=O)c3ccccc3C2=O)cc1  selectivity ratio     250
4  Cc1ccc(N(C(=O)c2ccc(Cl)cc2Cl)C(=S)OCCN2C(=O)c3ccccc3C2=O)cc1  selectivity ratio     163
5  O=C1c2ccccc2C(=O)N1CCOC(=S)N(C(=O)c1ccc(Cl)c(Cl)c1)c1ccc(Cl)cc1  selectivity ratio    3890
6  O=C1c2ccccc2C(=O)N1CCCOC(=S)N(C(=O)c1cccc([N+](=O)[O-])c1)c1ccc(Cl)cc1  selectivity ratio     1.8

### Prompt Which selectivity ratio value belongs to O=C1c2ccccc2C(=O)N1CCOC(=S)N(C(=O)c1ccc(Cl)cc1Cl)c1ccc(Cl)cc1 ?
### Response 600

### Prompt selectivity ratio for Cc1cccc(C(=O)N(C(=S)OCCN2C(=O)c3ccccc3C2=O)c2ccc(Cl)cc2)c1 ?
### Response 5800

### Prompt What value of selectivity ratio has been reported for the following compound? Cc1ccccc1C(=O)N(C(=S)OCCN1C(=O)c2ccccc2C1=O)c1ccc(Cl)cc1
### Response 525

###

# RUN DESCRIPTION: Selectivity index, ratio of CC50 for human MT4 cells to EC50 for HIV1 3B
# Assay type: toxicity, cell-based
# RUN CONDITIONS: read-out: Ratio CC50/EC50
READOUT NAME: selectivity ratio
Returns: the value as a bare number; no unit string appended.

Worked examples follow.
> print(dat)
                                   molecule  recorded.number
1  O=C1c2ccccc2C(=O)N1CCOC(=S)N(C(=O)c1ccc(Cl)c(Cl)c1)c1ccccc1              104
2  O=C1c2ccccc2C(=O)N1CCOC(=S)N(C(=O)c1cc(F)cc(F)c1)c1ccc(Cl)cc1             8430
3             S=C(NCCc1ccccn1)Nc1ccc(Br)cn1             3000
4  O=C1c2ccccc2C(=O)N1CCOC(=S)N(C(=O)c1ccc(Br)cc1)c1ccc(Br)cc1             2090
5  Cc1ccc(N(C(=O)c2ccc(Cl)c([N+](=O)[O-])c2)C(=S)OCCN2C(=O)c3ccccc3C2=O)cc1              783

### Prompt If you can, please state the reported selectivity ratio value of Cc1ccc2c(c1)C(=O)N(CCOC(=S)N(C(=O)c1cccnc1Cl)c1ccc(Cl)cc1)C2=O .
### Response 817

### Prompt Which selectivity ratio is listed for CC(CN1C(=O)c2ccccc2C1=O)OC(=S)N(C(=O)c1cccc([N+](=O)[O-])c1)c1ccc(Cl)cc1 (racemic) ?
### Response 44.3

### Prompt Could you share which selectivity ratio value was measured for O=C1c2ccccc2C(=O)N1CCOC(=S)N(C(=O)c1cc2ccccc2s1)c1ccc(Cl)cc1 ?
### Response 280

###

# Tested on: Human immunodeficiency virus 1
# RUN DESCRIPTION: Antiviral activity against HIV1 3B infected in human MT4 cells assessed as inhibition of virus-induced cytopathogenicity by MTT assay
# Type: functional, organism-based
# RUN CONDITIONS: Human immunodeficiency virus 1, 3B
READOUT NAME: EC50 (nM)
Reply with just the number (in nM).

> print(dat)
                                   compound  unit.name  recorded.number
1  O=C1c2ccccc2C(=O)N1CCOC(=S)N(C(=O)c1ccc(Cl)c(Cl)c1)c1ccc(Cl)cc1         nM                9

### Prompt Tell me the measured EC50 of Cc1cc(C(=O)N(C(=S)OCCN2C(=O)c3ccccc3C2=O)c2ccc(Cl)cc2)c(C)o1 , please.
### Response 20

### Prompt What does the data say about its EC50? Entry: O=C1c2ccccc2C(=O)N1CCOC(=S)N(C(=O)c1cccc2ccccc12)c1ccc(Cl)cc1
### Response 30

### Prompt Sample O=C1c2ccccc2C(=O)N1CCOC(=S)N(C(=O)c1ccc(C(F)(F)F)cc1)c1ccc(Cl)cc1 — what was its EC50?
### Response 5

### Prompt Reported EC50, compound CC(CN1C(=O)c2ccccc2C1=O)OC(=S)N(C(=O)c1cccc([N+](=O)[O-])c1)c1ccc(Cl)cc1 (racemic) : ____
### Response 700

### Prompt Query: EC50; subject: Cc1ccc(N(C(=O)c2cc(F)ccc2F)C(=S)OCCN2C(=O)c3ccccc3C2=O)cc1
### Response 40

### Prompt Look up EC50: O=C1c2ccccc2C(=O)N1CCOC(=S)N(C(=O)c1cccc([N+](=O)[O-])c1)c1ccc(Cl)cc1
### Response 1.5

### Prompt Can you look up the measured EC50 of O=C1c2ccccc2C(=O)N1CCOC(=S)N(C(=O)c1cc(F)ccc1F)c1ccc(Cl)cc1 for me?
### Response 20

### Prompt Sample O=C1c2ccccc2C(=O)N1CCOC(=S)N(C(=O)c1cccc(Cl)c1Cl)c1ccc(Cl)cc1 — what was its EC50?
### Response 100

### Prompt I'd like to know its EC50. The compound in question is O=C1c2ccccc2C(=O)N1CCOC(=S)N(C(=O)c1ccc(Cl)c([N+](=O)[O-])c1)c1ccc(Cl)cc1
### Response 20

### Prompt # lookup: EC50 of Cc1ccc(C(=O)N(C(=S)OCCN2C(=O)c3ccccc3C2=O)c2ccc(C)cc2)cc1
### Response 20

### Prompt Could you tell me which EC50 is on file for O=C1c2ccccc2C(=O)N1CCOC(=S)N(C(=O)c1ccc(Cl)nc1)c1ccc(Cl)cc1 ?
### Response 6

### Prompt Using the record for O=C1c2ccccc2C(=O)N1CCOC(=S)N(C(=O)c1cc([N+](=O)[O-])ccc1Cl)c1ccc(Cl)cc1 , report its EC50.
### Response 70

### Prompt # EC50 lookup, item O=C1c2ccccc2C(=O)N1CCOC(=S)N(C(=O)c1ccc(F)cc1F)c1ccc(Cl)cc1
### Response 10

### Prompt Bench note: what EC50 did O=C1c2ccccc2C(=O)N1CCOC(=S)N(C(=O)c1ccc(Cl)cc1)c1ccc(Cl)cc1 show?
### Response 25

### Prompt Item under review: O=C1c2ccccc2C(=O)N1CCOC(=S)N(C(=O)c1cccc(F)c1F)c1ccc(Cl)cc1 . Reported EC50?
### Response 8

### Prompt Can you share its EC50? I mean this compound: Cc1cccc(C(=O)N(C(=S)OCCN2C(=O)c3ccccc3C2=O)c2ccc(Cl)cc2)c1
### Response 10

### Prompt So what does the record say about EC50 for Cc1ccc(N(C(=O)c2cccc(Cl)c2Cl)C(=S)OCCN2C(=O)c3ccccc3C2=O)cc1 ?
### Response 200

###

selectivity ratio listing for selected compounds.
# RUN DESCRIPTION: Selectivity index, ratio of CC50 for human MT4 cells to EC50 for HIV1 3B
# Assay type: toxicity, cell-based
# RUN CONDITIONS: read-out: Ratio CC50/EC50
Respond using a number only.

Here is how some compounds turned out for selectivity ratio.
> print(dat)
                                smiles.code       readout.name  recorded.number
1  Cc1cc(C(=O)N(C(=S)OCCN2C(=O)c3ccccc3C2=O)c2ccc(Cl)cc2)ccc1Br  selectivity ratio             2570
2  Cc1ccc(N(C(=O)c2c(F)cccc2F)C(=S)OCCN2C(=O)c3ccccc3C2=O)cc1  selectivity ratio               65
3  Cc1ccc(N(C(=O)c2ccc(Cl)c(Cl)c2)C(=S)OCCN2C(=O)c3ccccc3C2=O)cc1  selectivity ratio              340

Next up:
### Prompt May I ask what selectivity ratio has been recorded for O=C1c2ccccc2C(=O)N1CCOC(=S)N(C(=O)c1cccc([N+](=O)[O-])c1)c1c(Cl)cccc1Cl ?
### Response 3.4

###

# RUN DESCRIPTION: Selectivity index, ratio of CC50 for human MT4 cells to EC50 for HIV1 3B
# Type: toxicity, cell-based
# RUN CONDITIONS: read-out: Ratio CC50/EC50
READOUT NAME: selectivity ratio
Provide a numeric answer; units are not to be included.

> print(dat)
                                smiles.code  recorded.number
1  Cc1ccc(N(C(=O)c2ccc([N+](=O)[O-])cc2)C(=S)OCCN2C(=O)c3ccccc3C2=O)cc1             1930
2  Cc1ccc(N(C(=O)c2ccc([N+](=O)[O-])cc2Cl)C(=S)OCCN2C(=O)c3ccccc3C2=O)cc1              189
3  O=C1c2ccccc2C(=O)N1CCOC(=S)N(C(=O)c1ccc(Cl)c([N+](=O)[O-])c1)c1ccccc1              146
4  Cc1ccc(N(C(=O)c2cc(F)ccc2F)C(=S)OCCN2C(=O)c3ccccc3C2=O)cc1             1550
5  O=C1c2ccccc2C(=O)N1CCOC(=S)N(C(=O)c1ccc([N+](=O)[O-])cc1Cl)c1ccc(Cl)cc1             2380

Next:
### Prompt Request the reported selectivity ratio associated with COc1cccc(OC)c1C(=O)N(C(=S)OCCN1C(=O)c2ccccc2C1=O)c1ccc(Cl)cc1
### Response 172
